Data origin: patent US20080293712A1

target: PDK-1 (Homo sapiens); experiment: PDK-1 kinase inhibition ELISA assay (phosphorylation of His6-tagged SGK1 S422D by PDK-1); assay type: biochemical; details: PDK-1 ELISA, Table 11; read-out: Average IC50
Sequence (O15530 whole entry): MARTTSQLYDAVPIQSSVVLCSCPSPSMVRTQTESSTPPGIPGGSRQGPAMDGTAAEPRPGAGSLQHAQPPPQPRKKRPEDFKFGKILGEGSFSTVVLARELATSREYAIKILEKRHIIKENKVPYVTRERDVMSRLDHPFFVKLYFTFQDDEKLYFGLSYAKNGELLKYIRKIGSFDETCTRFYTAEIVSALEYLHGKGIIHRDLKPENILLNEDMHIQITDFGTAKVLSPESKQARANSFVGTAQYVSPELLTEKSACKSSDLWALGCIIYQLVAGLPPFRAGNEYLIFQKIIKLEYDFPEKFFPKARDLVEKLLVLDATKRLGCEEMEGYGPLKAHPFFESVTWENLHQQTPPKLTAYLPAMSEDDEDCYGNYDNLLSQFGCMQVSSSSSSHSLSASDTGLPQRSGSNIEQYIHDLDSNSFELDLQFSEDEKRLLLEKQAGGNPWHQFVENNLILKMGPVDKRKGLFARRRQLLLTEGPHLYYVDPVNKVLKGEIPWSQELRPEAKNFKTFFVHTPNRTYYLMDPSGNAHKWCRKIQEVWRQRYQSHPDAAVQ
quantity: IC50 (µM)

C=CCOc1cncc(-c2cc3c(cnc4cc(OC)c(OC)cc43)c(N)n2)c1; 0.018
COc1cc2ncc3c(N)nc(-c4cncc(OC[C@@H]5CN=C(Nc6ccccc6)N5)c4)cc3c2cc1OC; 0.082
CCOc1cc2ncc3c(N)nc(-n4ccnc4)cc3c2cc1NC(=S)NCCN1CCOCC1; 0.549
COc1cc2ncc3c(N)nc(-c4cncc(OC[C@H](C)N)c4)cc3c2cc1OC; 0.006

P: CNC(=O)c1ccccc1Nc1cncc(-c2cc3c(cnc4cc(OC)c(OC)cc43)c(N)n2)c1
Q: COc1cc2ncc3c(N)nc(-c4cncc(OC[C@@H](N)CNc5nccc(C)n5)c4)cc3c2cc1OC
R: COc1cc2c(cc1OCCN1CCCC1)ncc1c(N)nc(-n3ccnc3)cc12
S: COc1cc2ncc3c(N)nc(-c4cncc(OC[C@@H](N)CN5CCC[C@@H]5c5nccs5)c4)cc3c2cc1OC
Could you please order the items by IC50, going from the lowest number to the highest? Rank them, then answer with their labels in that order.
Q, S, P, R
(Q: 0.02 µM, S: 0.038 µM, P: 0.11 µM, R: 0.508 µM)
